Experiment: Short term HFD mouse model: plasma and liver exposure
Assay type: in vivo
Details: HFD mice, three oral doses of 10 mg/kg over two days, 4 h after final dose
recorded metric: liver/plasma ratio 4 h

>>> meas_value("N#Cc1cccc(C#N)c1-c1c(-c2cccc(-c3cc(F)c(C(=O)O)cc3Cl)c2)n(S(=O)(=O)c2ccc(C(F)F)cc2)c2ccc(F)cc12 [11/65]")
"C (30 to ≤100)"
>>> meas_value("N#Cc1cccc(C#N)c1-c1c(-c2cccc(-c3c(F)cc(C(=O)O)cc3F)c2)n(S(=O)(=O)c2ccc(C(F)F)cc2)c2ccc(F)cc12 [11/53]")
"C (30 to ≤100)"

---

Test: Short term HFD mouse model: plasma and liver exposure
Format: in vivo
Settings: HFD mice, three oral doses of 20 mg/kg over two days, 4 h after final dose
recorded metric: plasma exposure 4 h

Illustrative cases are given below, each with its answer.
>>> meas_value("Cc1ccc(S(=O)(=O)n2c(-c3cccc(C45CCC(C(=O)O)(CC4)CC5)c3)c(-c3ccsc3C#N)c3cc(F)ccc32)cc1 [3/64]")
"C (100 nM to <300 nM)"
>>> meas_value("N#Cc1sccc1-c1c(-c2cccc(-c3ccc(C(=O)O)cc3Cl)c2)n(S(=O)(=O)c2ccc(C(F)(F)F)nc2)c2ccc(F)cc12 [11/16]")
"C (100 nM to <300 nM)"
>>> meas_value("O=C(O)c1ccc(-c2cccc(-c3c(-c4ncccc4C(F)(F)F)c4cc(F)ccc4n3S(=O)(=O)c3ccc(C(F)F)cc3)c2)c(Cl)c1 [11/23]")
"C (100 nM to <300 nM)"
>>> meas_value("Cc1ccc(S(=O)(=O)n2c(-c3cccc(-c4ccc(C(=O)O)cc4)c3)c(-c3ccsc3C#N)c3cc(F)ccc32)cc1C [23/2]")
"C (100 nM to <300 nM)"
>>> meas_value("Cc1ccc(S(=O)(=O)n2c(-c3cccc(-c4ccc(C(=O)O)cc4Cl)c3)c(-c3ccsc3C#N)c3cc(F)ccc32)cc1 [3/48]")
"D (<100 nM)"

Alright, here's another molecule for you.
Name the reported plasma exposure 4 h value associated with the molecule Cc1ccc(S(=O)(=O)n2c(-c3cccc(-c4ccc(C(=O)O)cc4)c3)c(-c3ccsc3C#N)c3cc(F)ccc32)cc1 [5/3]
D (<100 nM)

---

Molecular target: LXRβ (Homo sapiens, UniProt P55055)
Construct: LXRβ (amino acids 156-461); expressed in transfected cells; host or cells: HEK293
Sequence (P55055 156-460): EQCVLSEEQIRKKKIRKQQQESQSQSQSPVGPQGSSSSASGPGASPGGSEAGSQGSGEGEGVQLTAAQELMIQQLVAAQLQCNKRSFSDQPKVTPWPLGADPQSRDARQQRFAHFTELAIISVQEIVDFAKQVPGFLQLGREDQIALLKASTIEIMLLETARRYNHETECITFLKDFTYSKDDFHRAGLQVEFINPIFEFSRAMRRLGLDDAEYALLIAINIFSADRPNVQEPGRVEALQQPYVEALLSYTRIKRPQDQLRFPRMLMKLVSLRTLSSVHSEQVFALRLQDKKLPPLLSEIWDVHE
Experiment: LXR Gal4 reporter transient transfection assay (mammalian two-hybrid, HEK293), LXRβ
Format: cell-based
Conditions: ligand-binding domain (LBD) of LXRβ, HEK293; read-out: LBD-M2H Gal4β
Method: LXRα and LXRβ activity status was determined via detection of interaction with coactivator and corepressor proteins in mammalian two-hybrid experiments (M2H). […] As cofactors, domains of either the steroid receptor coactivator 1 (SRC1; amino acids 552-887; SEQ ID NO:5) or of the corepressor NCoR (amino acids 1906-2312; NP006302; SEQ ID NO:6) were expressed as fusions to the DNA binding domain of the yeast transcription factor GAL4 (from pCMV-BD; Stratagene). […]
List of EC50 values.

>>> meas_value("N#Cc1sccc1-c1c(-c2cccs2)n(S(=O)(=O)c2ccc(Cl)cc2)c2ccc(OCC(=O)O)cc12")
"> 10 µM"
>>> meas_value("N#Cc1sccc1-c1c(-c2ccccc2)n(S(=O)(=O)c2ccc(OCC(=O)O)cc2)c2ccccc12")
"0.1 to 1 µM"
>>> meas_value("Cc1ccc(S(=O)(=O)n2c(-c3cccc(-c4cccc(C(=O)NS(C)(=O)=O)c4)c3)c(-c3ccsc3C#N)c3ccccc32)cc1")
"0.1 to 1 µM"
>>> meas_value("Cc1ccc(S(=O)(=O)n2c(-c3cccc(-c4cccc(C(=O)O)c4)c3)c(-c3ccsc3C#N)c3ccccc32)cc1")
"< 0.1 µM"
>>> meas_value("N#Cc1sccc1-c1c(-c2cccs2)n(S(=O)(=O)c2ccc(F)cc2F)c2ccccc12")
"< 0.1 µM"
>>> meas_value("NC(=O)c1sccc1-c1c(-c2cccs2)n(S(=O)(=O)c2ccc(Cl)cc2)c2ccccc12")
"0.1 to 1 µM"

As a next step, examine the molecule that follows.
Fill in the blank: the reported EC50 of `COc1ccc(S(=O)(=O)n2c(-c3ccc(CCC(N)=O)cc3)c(-c3ccsc3C#N)c3ccccc32)cc1` is ____.
0.1 to 1 µM
